Target: His-AKT (Full Length) (Homo sapiens (Human), UniProt P31749)
Sequence (P31749 whole entry): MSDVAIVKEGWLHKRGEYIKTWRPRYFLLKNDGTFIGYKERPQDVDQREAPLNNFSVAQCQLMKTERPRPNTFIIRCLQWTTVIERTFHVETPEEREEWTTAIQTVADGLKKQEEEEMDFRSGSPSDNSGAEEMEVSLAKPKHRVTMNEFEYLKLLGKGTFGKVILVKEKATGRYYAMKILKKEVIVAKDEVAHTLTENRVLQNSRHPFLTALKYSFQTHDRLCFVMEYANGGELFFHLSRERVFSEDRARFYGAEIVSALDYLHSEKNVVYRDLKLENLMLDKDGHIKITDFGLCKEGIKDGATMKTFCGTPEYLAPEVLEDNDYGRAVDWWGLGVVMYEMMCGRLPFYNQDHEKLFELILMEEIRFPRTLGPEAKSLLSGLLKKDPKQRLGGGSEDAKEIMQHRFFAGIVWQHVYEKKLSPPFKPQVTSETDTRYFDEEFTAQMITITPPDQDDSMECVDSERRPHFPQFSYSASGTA
Assay: AKT enzyme assay
Format: biochemical
Details: read-out: IC50 AKT
Endpoint: IC50 (nM)

(A) Nc1ncnc(N2CCC(c3nc(-c4ccc(F)c(C(F)(F)F)c4)cn3CCN3CCCC3)CC2)c1-c1ccc(F)cc1
(B) Nc1ncnc(N2CCC(c3nc(-c4ccc(F)c(C(F)(F)F)c4)cn3CCN3CCC3)CC2)c1C=O
(C) Nc1ncnc(N2CCC(c3nc(-c4ccnc(C(F)(F)F)c4)cn3CCNCCCCl)CC2)c1Br
(D) COCCNCCn1cc(-c2ccc(F)c(C(F)(F)F)c2)nc1C1CCN(c2ncnc(N)c2C(N)=O)CC1
Highest IC50 first, then in falling order down to the smallest. Rank the items, then write their labels in that order.
A, D, C, B
(A: 140 nM, D: 67 nM, C: 2.8 nM, B: 1.4 nM)

---

Molecular target: P70S6K (T412E mutant) (Homo sapiens (Human), UniProt P23443, T412E)
Sequence (P23443 whole entry T412E): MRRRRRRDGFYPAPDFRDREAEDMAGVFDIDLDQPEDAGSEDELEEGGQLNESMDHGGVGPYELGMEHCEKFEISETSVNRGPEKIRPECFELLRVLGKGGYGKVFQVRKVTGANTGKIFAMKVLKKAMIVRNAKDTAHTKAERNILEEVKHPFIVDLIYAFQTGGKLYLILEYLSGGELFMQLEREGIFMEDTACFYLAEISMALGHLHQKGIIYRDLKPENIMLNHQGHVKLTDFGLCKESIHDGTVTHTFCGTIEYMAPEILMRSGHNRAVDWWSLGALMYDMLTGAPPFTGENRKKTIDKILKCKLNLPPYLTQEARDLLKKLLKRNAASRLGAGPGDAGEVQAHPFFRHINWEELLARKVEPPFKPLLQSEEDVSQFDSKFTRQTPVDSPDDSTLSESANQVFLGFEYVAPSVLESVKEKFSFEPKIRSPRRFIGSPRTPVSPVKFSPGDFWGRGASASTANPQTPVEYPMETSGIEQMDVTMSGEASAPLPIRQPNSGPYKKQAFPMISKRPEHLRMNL
Experiment: P70S6K enzyme assay
Format: biochemical
Details: read-out: IC50 p70S6K
pIC50: −log10 of the molar value.
Endpoint: pIC50

# count of solved cases: 4
- Smiles representation: "CCc1c(N)ncnc1N1CCC(c2nc(-c3ccc(F)c(C(F)(F)F)c3)cn2CCN2CC(F)C2)CC1"
  pIC50: 8.38
- Smiles representation: "N#Cc1c(N)ncnc1N1CCC(c2nc(-c3ccc(F)c(Cl)c3)cn2CCN2CCC2)CC1"
  pIC50: 9.00
- Smiles representation: "NC(=O)c1c(N)ncnc1N1CCC(c2nc(-c3ccc(F)c(C(F)(F)F)c3)cn2CC2CNC2)CC1"
  pIC50: 8.66
- Smiles representation: "Nc1ncnc(N2CCC(c3nc(-c4ccc(F)c(C(F)(F)F)c4)cn3CCN3CCC3)CC2)c1N"
  pIC50: 7.97

(A) COc1ccc(-c2cnccc2N2CCC(c3nc(-c4cccc(C(F)(F)F)c4)c[nH]3)CC2)cc1
(B) Cn1cc(-c2ccc(F)c(C(F)(F)F)c2)nc1C1CCN(c2ncnc(N)c2-c2cccnc2)CC1
Of A and B , which carries the smaller reported pIC50 figure? Kindly state the label of the option you pick.
A

---

Molecular target: P70S6K (T412E mutant) (Homo sapiens (Human), UniProt P23443, T412E)
Test: P70S6K enzyme assay
Type: biochemical
Conditions: read-out: IC50 p70S6K
Endpoint: IC50 (nM)

- Compound: "Cn1cc(-c2ccc(F)c(C(F)(F)F)c2)nc1C1CCN(c2ncnc(N)c2-c2cccc(Cl)c2)CC1 [Compound 51]"
  Output unit: "nM"
  IC50: 22
- Compound: "COc1c(N)ncnc1N1CCC(c2nc(-c3ccnc(C(F)(F)F)c3)cn2CCN2CCC2)CC1 [Compound 115]"
  Output unit: "nM"
  IC50: 2.8

(P) CCc1c(N)ncnc1N1CCC(c2nc(-c3ccc(F)cc3)cn2CCN2CC(F)C2)CC1 [Compound 200]
(Q) Cc1cc(-c2cn(CCNCC(C)C)c(C3CCN(c4ncnc(N)c4C#N)CC3)n2)ccc1F [Compound 390]
Of P and Q , which carries the smaller reported IC50 figure? Kindly state the label of the option you pick.
Q
(Q: 1.9 nM, P: 21 nM)

---

Target: His-AKT (Full Length) (Homo sapiens (Human))
Assay: AKT enzyme assay
Format: biochemical
Conditions: read-out: IC50 AKT
Endpoint: IC50 (nM)

(I) Cc1cc(-c2cn(CCNCC(C)C)c(C3CCN(c4ncnc(N)c4C(N)=O)CC3)n2)ccc1F
(II) CCc1c(N)ncnc1N1CCC(c2nc(-c3ccc(F)c(C)c3)cn2CCN(C)C)CC1
(III) CNCCn1cc(-c2ccc(F)c(C(F)(F)F)c2)nc1C1CCN(c2ncnc(N)c2C#N)CC1
(IV) CNCCn1cc(-c2ccnc(C(F)(F)F)c2)nc1C1CCN(c2ncnc(N)c2C2C=NOC2)CC1 (centres unmarked)
# ascending order, key=IC50 Rank the items, then write their labels in that order.
III, I, II, IV

(a) NC(=O)c1c(N)ncnc1N1CCC(c2nc(-c3cnoc3)cn2CCN2CCC2)CC1
(b) CCOc1c(N)ncnc1N1CCC(c2nc(-c3ccc(F)c(C(F)(F)F)c3)cn2CCNC(C)C)CC1
Of a and b , which carries the smaller reported IC50 figure? Kindly state the label of the option you pick.
b
(b: 1.5 nM, a: 760 nM)

(A) Nc1cc(N2CCC(c3nc(-c4ccc(F)c(C(F)(F)F)c4)cn3CCN3CCCC3)CC2)ncn1
(B) Cc1cc(-c2cn(CCN3CCC3)c(C3CCN(c4ncnc(N)c4OC(C)C)CC3)n2)ccc1F
From the recorded data, which exceeds the other in IC50: A or B ? Kindly state the label of the option you pick.
A
(A: 180 nM, B: 2.7 nM)
